# assayExplanation: decrease of heat-induced HSF-1 GFP reporter, dose response, NIH3T3 R4 cells, GFP/RFP, cherry-pick, set 4 (AID 588827)
# conditionInfo: NIH3T3 R4 HSF-1 GFP reporter, heat shock, 48 h; series mostly up to 19.5 µM
The campaign covered roughly 2,400 compounds. About 20 (0.8%) were called active. Another 19% or so got no clear call; they are omitted. Not all results are given here. Potency and affinity values are given separately.
measureName: outcome

Examples with answers:
{"molecule": "CCOc1ccc(-c2nc(CSCC(=O)N3CCN(c4cccc(OC)c4)CC3)c(C)o2)cc1", "outcome": "inactive"}
{"molecule": "Nc1ccccc1-c1nc2ccccc2s1", "outcome": "inactive"}
{"molecule": "Cc1cc(Cl)ccc1OCCCC(=O)N1CCOCC1", "outcome": "inactive"}
{"molecule": "CC(O/N=C\\c1ccccc1O)C(=O)Nc1ccccc1C(=O)N1CCOCC1 (stereo unspecified)", "outcome": "inactive"}
{"molecule": "C=CCn1c(C)cc(C(=O)CSc2nnc(NC(C)C)s2)c1C", "outcome": "inactive"}

# input for lookup
Exercise: Tell me measured outcome for N#Cc1cc2c(nc1SCC(=O)N1CCOCC1)CCCCC2 please.
Key: inactive
